Data origin, for the record: patent EP4617261A1

# study_system: FGFR1 kinase (Homo sapiens)
# Construct: purchased CARNA
# protocol_notes: LANCE ULTRA Assay, inhibitory activity on FGFR1 kinase
# Assay type: biochemical
# condition_label: read-out: In vitro FGFR1 kinase inhibition rate (%) (Concentration in 100 nM); Concentration 100 nM
endpoint: inhibition at 0.1 µM

[[record]]
compound = "C=CC(=O)Nc1ccc(CCNc2nc(Nc3ccc(N4CCN(C)CC4)cc3)ncc2Cl)cc1 [Compound 33]"
endpoint = "inhibition at 0.1 µM"
reported = "66.4%"

[[record]]
compound = "C=CC(=O)Nc1cccc(C)c1Nc1nc(Nc2ccc(N3CCN(C)CC3)cc2)ncc1C [Compound 12]"
endpoint = "inhibition at 0.1 µM"
reported = "-1.1%"

[[record]]
compound = "C=CC(=O)Nc1cccc(C)c1Nc1nc(Nc2ccc(N3CCN(C)CC3)cc2)ncc1Cl [Compound 11]"
endpoint = "inhibition at 0.1 µM"
reported = "1.4%"

[[record]]
compound = "C=CC(=O)Nc1cccc(C)c1Nc1nc(Nc2ccc(N3CCN(C)CC3)cc2)ncc1OC [Compound 13]"
endpoint = "inhibition at 0.1 µM"
reported = "-0.1%"


---

IC50: recorded values
# Tested on: H1581
# protocol_notes: MTT assay, cell proliferation, H1581
# Type: cell-based
# condition_label: Homo sapiens, NCI-H1581, H1581 cells, 72 h
endpoint: IC50 (µM)

[[record]]
compound = "CCN1CCN(c2ccc(Nc3cc(N(C)C(=O)Nc4c(Cl)c(OC)cc(OC)c4Cl)ncn3)cc2)CC1 [BGJ398, reference compound]"
reported = 0.0867

[[record]]
compound = "C=CC(=O)Nc1ccc(Nc2nc(Nc3ccc(N4C[C@@H](C)N[C@@H](C)C4)c(OC)c3)ncc2Cl)cc1Cl [Compound 46]"
reported = 0.018


---

inhibition at 0.1 µM: recorded values
# study_system: FGFR1 kinase (Homo sapiens, UniProt P11362)
# Construct: purchased CARNA
# Sequence (P11362 22-822): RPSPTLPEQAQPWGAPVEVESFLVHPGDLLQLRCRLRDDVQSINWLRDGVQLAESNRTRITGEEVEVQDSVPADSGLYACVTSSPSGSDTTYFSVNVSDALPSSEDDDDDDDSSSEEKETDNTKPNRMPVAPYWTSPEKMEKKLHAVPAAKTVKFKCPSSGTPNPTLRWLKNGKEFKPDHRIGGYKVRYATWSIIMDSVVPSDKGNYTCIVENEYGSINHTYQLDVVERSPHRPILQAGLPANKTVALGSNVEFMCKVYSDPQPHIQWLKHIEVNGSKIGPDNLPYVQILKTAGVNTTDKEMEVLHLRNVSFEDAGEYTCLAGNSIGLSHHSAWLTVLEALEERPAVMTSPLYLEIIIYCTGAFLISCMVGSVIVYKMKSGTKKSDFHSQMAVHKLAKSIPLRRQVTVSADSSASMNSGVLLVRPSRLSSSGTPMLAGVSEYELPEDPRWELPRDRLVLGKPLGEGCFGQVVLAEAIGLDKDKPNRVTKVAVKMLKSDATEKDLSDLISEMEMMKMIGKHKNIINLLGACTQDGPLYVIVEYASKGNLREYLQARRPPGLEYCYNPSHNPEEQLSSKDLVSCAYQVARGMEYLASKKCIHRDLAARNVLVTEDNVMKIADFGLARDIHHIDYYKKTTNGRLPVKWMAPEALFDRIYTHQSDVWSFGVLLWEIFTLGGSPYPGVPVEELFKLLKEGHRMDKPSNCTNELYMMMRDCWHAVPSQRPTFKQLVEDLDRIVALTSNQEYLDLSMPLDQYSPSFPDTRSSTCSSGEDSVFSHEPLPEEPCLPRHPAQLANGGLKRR
# protocol_notes: LANCE ULTRA Assay, inhibitory activity on FGFR1 kinase
# Assay type: biochemical
# condition_label: read-out: In vitro FGFR1 kinase inhibition rate (%) (Concentration in 100 nM); Concentration 100 nM
endpoint: inhibition at 0.1 µM (%)

[[record]]
smiles_repr = "C=CC(=O)NC(=O)c1ccc(Nc2nc(Nc3ccc(N4CCN(C)CC4)cc3)ncc2Cl)cc1Cl"
u = "%"
reported = 50.3

[[record]]
smiles_repr = "C=CC(=O)Nc1cccc(C)c1Nc1nc(Nc2ccc(N3CCN(C)CC3)cc2)ncc1C(F)(F)F"
u = "%"
reported = 11.4

[[record]]
smiles_repr = "C=CC(=O)Nc1ccc(CNc2nc(Nc3ccc(N4CCN(C)CC4)cc3)ncc2F)cc1"
u = "%"
reported = 5.5

[[record]]
smiles_repr = "C=CC(=O)Nc1ccc(CCNc2nc(Nc3ccc(N4CCN(C)CC4)cc3)ncc2F)cc1"
u = "%"
reported = 43

